- System: MCF7
- Test Summary: NCI tumour cell line growth inhibition, 48 h
Activity calls are given as the source filed them. Cut-off read from the data, not from the text of the source: active = GI50 up to about 1.1 µM and inactive = higher.
Documented GI50 across a set of compounds

{"Compound": "C/C(=N\\Nc1nc2ccccc2o1)c1ccc2ccccc2n1", "GI50": "6.12 µM (inactive)"}
{"Compound": "C=CC1C(OC2OC(CO)C(O)C(O)C2O)OC=C(C(=O)OC)C1CC1CC(=O)CC(CCc2ccc(O)cc2)O1 (stereo not drawn)", "GI50": "> 100 µM (inactive)"}
{"Compound": "O=C(O)c1ccc(Nc2nc3ccccc3nc2C(=O)O)cc1", "GI50": "> 100 µM (inactive)"}
{"Compound": "O=C1CC(c2ccc(Cl)cc2)C2(C(=O)NC(=S)NC2=O)C(c2ccc(Cl)cc2)C1 (stereo not drawn)", "GI50": "17.3 µM (inactive)"}
{"Compound": "COc1cc(/C=C/c2ccnc3ccccc23)cc(OC)c1OC", "GI50": "5.22 µM (inactive)"}
{"Compound": "Cc1oc2c(c1C(=O)c1ccccc1)C(=O)c1ccccc1C2=O", "GI50": "4.07 µM (inactive)"}
{"Compound": "O=C(Nc1ccc(N2C(=O)CSC2c2ccccc2O)cc1)c1ccc(N2C(=O)CSC2c2ccccc2O)cc1 (stereo not drawn)", "GI50": "46.3 µM (inactive)"}
{"Compound": "CC1(C)C2CCC(=O)C1C(OCc1ccccc1)C2 (stereo not drawn)", "GI50": "> 100 µM (inactive)"}

###

- System: UO-31
- Test Summary: NCI tumour cell line growth inhibition, 48 h
The source made the active and inactive calls. Rule as the data show it: active = GI50 up to about 1.1 µM and inactive = higher.
Possible outcomes: class 1 for active, class 0 for inactive

{"Molecule": "O=[N+]([O-])c1ccc2c(Nc3ccccc3-c3ccccc3Nc3c4ccccc4nc4cc([N+](=O)[O-])ccc34)c3ccccc3nc2c1", "Qualitative Label": "class 0"}
{"Molecule": "COc1ccc2nc3cccc([N+](=O)[O-])c3c(NCCN(C)C)c2c1", "Qualitative Label": "class 1"}
{"Molecule": "O=C(/C=C/c1ccccc1Cl)NC1C=Nc2ccc([N+](=O)[O-])cc2NC1 (centres undefined)", "Qualitative Label": "class 0"}
{"Molecule": "CC1(C)CC(=O)C(=CNC(N)=S)C(=O)C1", "Qualitative Label": "class 0"}

###

- Tested on: HT-29
- Test Summary: NCI tumour cell line growth inhibition, 48 h
Calls of active or inactive are those of the source. Cut-off read from the data, not from the text of the source: active = GI50 up to about 1.1 µM and inactive = higher.

{"Compound": "C=CC[C@@H]1C(=O)[C@@]2(O[Si](C(C)C)(C(C)C)C(C)C)CC[C@@H]1C[C@H]2NC(=O)OCC(Cl)(Cl)Cl", "Assay System": "HT-29", "GI50": "> 100 µM (inactive)"}
{"Compound": "COC(=O)C(=O)C(C(=O)C(=O)Nc1nc2ccc(C)cc2s1)c1nc2ccc([N+](=O)[O-])cc2nc1O (stereo not drawn)", "Assay System": "HT-29", "GI50": "> 100 µM (inactive)"}
{"Compound": "NC1=Nc2ccccc2Sc2nccn21", "Assay System": "HT-29", "GI50": "23 µM (inactive)"}
{"Compound": "C/C(Cc1ccc2c(c1)OCO2)=N\\NC(=O)C(C)Sc1nnc(SC(C)C(=O)N/N=C(\\C)Cc2ccc3c(c2)OCO3)s1 (stereo not drawn)", "Assay System": "HT-29", "GI50": "> 100 µM (inactive)"}
{"Compound": "CC(=O)OC1CCC2C3CCc4c(C)ccc(OS(=O)(=O)c5ccccc5)c4C3CCC12C (stereo not drawn)", "Assay System": "HT-29", "GI50": "13.1 µM (inactive)"}
{"Compound": "O=C(NCCO)c1cc2c(cn1)[nH]c1ccccc12", "Assay System": "HT-29", "GI50": "> 100 µM (inactive)"}
{"Compound": "O=[N+]([O-])c1ccc(Cl)c2c([N+](=O)[O-])cccc12", "Assay System": "HT-29", "GI50": "3.26 µM (inactive)"}
{"Compound": "COc1ccc(OC)c2[nH]c(Sc3c([N+](=O)[O-])ncn3C)nc12", "Assay System": "HT-29", "GI50": "28.4 µM (inactive)"}

The reported measurements were obtained from ChEMBL document CHEMBL1201862.
